test system: Eimeria tenella; assay: Inhibitory effects of the derivatives on Eimeria tenella of chicken (60 ppm in feed); type: in vivo; settings: Eimeria tenella, 168 h; broilers, 60 ppm in feed, 250,000 E. tenella oocysts, relative to group 1 (not infected, not treated); read-out: Relative weight gain (%)
Listed molecules paired with reported response vs control in vivo at 60 ppm, 60 µg/mL
Number in %, nothing else.

Examples with their reported response vs control in vivo at 60 ppm, 60 µg/mL follow.
{"molecule": "O=C(Nc1ccc([N+](=O)[O-])cc1)c1nc[nH]c1C(=O)Nc1ccc([N+](=O)[O-])cc1", "assay_result": 82.6}
{"molecule": "NC(=O)c1ncn(Cc2ccc([N+](=O)[O-])cc2)c1C(N)=O", "assay_result": 104}
{"molecule": "CCCCCCn1cnc(C(N)=O)c1C(N)=O [IST15162, 1-hexyl-1H-imidazole-4,5-dicarboxamide]", "assay_result": 81.6}

Input line: Name the reported response vs control in vivo at 60 ppm, 60 µg/mL value associated with the molecule CC(C)n1cnc(C(N)=O)c1C(N)=O
Output line: 85.9

Input line: Name the reported response vs control in vivo at 60 ppm, 60 µg/mL value associated with the molecule Cc1ccc(Cn2cnc(C(N)=O)c2C(N)=O)cc1
Output line: 78.4

Input line: Name the reported response vs control in vivo at 60 ppm, 60 µg/mL value associated with the molecule NC(=O)c1ncn(Cc2ccc(C(F)(F)F)cc2)c1C(N)=O
Output line: 101

Input line: Name the reported response vs control in vivo at 60 ppm, 60 µg/mL value associated with the molecule CN1CCN(C(=O)c2nc[nH]c2C(=O)N2CCN(C)CC2)CC1
Output line: 89.7

Input line: Name the reported response vs control in vivo at 60 ppm, 60 µg/mL value associated with the molecule NC(=O)c1ncn(Cc2ccc(F)cc2)c1C(N)=O
Output line: 81.2

Input line: Name the reported response vs control in vivo at 60 ppm, 60 µg/mL value associated with the molecule O=C1NC(=O)c2[nH]cnc21 [IST15015, pyrrolo[3,4-d]imidazole-4,6(1H,5H)-dione]
Output line: 72.5

Input line: Name the reported response vs control in vivo at 60 ppm, 60 µg/mL value associated with the molecule CS(=O)(=O)c1ccc(Cn2cnc(C(N)=O)c2C(N)=O)cc1
Output line: 86.3
